Measured values drawn from patent US20260167721A1 for this set.

Task for the reader: assign each of the following binders its reported kon.
# Assay target: T1, recombinant human CD3 epsilon/delta heterodimer (human, UniProt P07766 23-126; P04234 22-105)
# T1 construct: Recombinant protein in solution (200-50 nM) in the Octet assay; also called hCD3 E/D; human CD3E/D
# T1 sequence (P07766 23-126, stated change not applied, chain 1 of 2): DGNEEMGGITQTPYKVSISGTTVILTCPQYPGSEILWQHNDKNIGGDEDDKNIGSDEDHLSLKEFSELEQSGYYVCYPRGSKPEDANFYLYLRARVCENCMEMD
# T1 sequence (P04234 22-105, stated change not applied, chain 2 of 2): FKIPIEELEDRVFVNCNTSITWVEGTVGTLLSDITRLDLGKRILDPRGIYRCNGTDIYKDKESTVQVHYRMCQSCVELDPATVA
# Measurement notes: Octet BLI, mAb on FAB2G sensor, hCD3 E/D 200-50 nM; R^2 0.99
Field format: number, assumed M⁻¹ s⁻¹, no unit text.

-- ask May I ask what kon has been recorded for ABL-CD3-56 (antibody, V domains shown, Chimeric hybridoma mAb: human V, CH1, upper hinge; mouse middle hinge, CH2, CH3) VH: EVQLVESGGGLVKPGGSLRLSCVASGFTFSRYSMNWVRQAPGKGLEWVSSISSSSRYTYYADSLKGRFIMSRDNAKNSLFLQMNSLRAEDTAVYYCARNLYNALDYWGQGTLVTVSS VL: FMLTQPHSVSESPGKTVTISCTRSSGSIASNYVQWYQQRPGSSPTTVIYEDNQRPSGVPDRFSGSIDSSSNSASLTISGLQTEDEADYYCQSYDSSNRVFGGGTKLTVL ?
-- reply 132000

-- ask Could you do the same for ABL-CD3-12 (antibody, V domains shown, Chimeric hybridoma mAb: human V, CH1, upper hinge; mouse middle hinge, CH2, CH3) VH: EVQLVESGGGLVKPGGSLRLSCAASGFTFSSYTMNWVRQAPGKGLEWVSSISRSSSYKYYADSVKGRFTISRDNAKNSLYLQMNSLRAEDTAVYYCAREPPTLGMDYWGQGTLVIVSS VL: NFMLTQPHSVSESPGKTVTISCTRSNGSITSNYVQWYQQRPGSSPTTVIYEDNQRPSGVPDRFSGSIDSSSNSASLTISGLKTEDEADYYCQSFDNSNRVFGEKTKLTVL , please?
-- reply 136000

-- ask Please answer likewise for ABL-CD3-49 (antibody, V domains shown, Chimeric hybridoma mAb: human V, CH1, upper hinge; mouse middle hinge, CH2, CH3) VH: EVQLVESGGGLVKPGGSLRLSCSASGFTFSTYTMNWVRQAPGKGLEWVSSISKSSSYIYYTDSVKGRFTISRDNAKNSLYLQMNSLRAEDTAVYYCARERRTLAFDIWGQGTMVTVSS VL: NFMLTQPHSVSESPGKTVTISCTRSSGSIASNYVQWYQQRPGSSPTTVIYEDNQRSSGVPDRFSGSIDSSSNSASLTISGLKTEDEADYYCQCYDRSNRVFGGGTKLTVL
-- reply 200000

-- ask Repeat for the following binder: ABL-CD3-15 (antibody, V domains shown, Chimeric hybridoma mAb: human V, CH1, upper hinge; mouse middle hinge, CH2, CH3) VH: EVQLVESGGGLVKPGGSLRLSCAASGFNCSSYSMNWVRQAPGKGLEWVSSISRSSNYIYYADSVKGRFSISRDDAKNSLYLQMNSLRAEDTAVYYCARERWIQLYSDYWGQGILVTVSS VL: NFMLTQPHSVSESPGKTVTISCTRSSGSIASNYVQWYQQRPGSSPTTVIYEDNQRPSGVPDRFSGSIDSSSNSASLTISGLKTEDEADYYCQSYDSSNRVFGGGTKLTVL
-- reply 171000

-- ask Queued: ABL-CD3-46 (antibody, V domains shown, Chimeric hybridoma mAb: human V, CH1, upper hinge; mouse middle hinge, CH2, CH3) VH: EVQLVESGGGLVKPGGSLRLSCSASGFTFSTYTMNWVRQAPGKGLDWVSSISKSSTYIYYADSVKGRFTISRDNAKNSLYLQMNSLRAEDTAVYYCARERRTLAFDIWGQGTMVTVSS VL: NFMLTQPHSVSESPGKTVTISCTRSSGSIASNYVQWYQQRPGSSPTTVIYEDNQRPSGVPDRFSGSIDSSSNSASLTISGLKTEDEADYYCQCYDRSNRVFGGGTKLTVL
-- reply 180000

-- ask Cool, now ABL-CD3-26 (antibody, V domains shown, Chimeric hybridoma mAb: human V, CH1, upper hinge; mouse middle hinge, CH2, CH3) VH: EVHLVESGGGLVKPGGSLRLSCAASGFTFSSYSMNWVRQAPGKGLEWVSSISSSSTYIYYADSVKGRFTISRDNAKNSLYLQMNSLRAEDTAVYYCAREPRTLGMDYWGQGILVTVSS VL: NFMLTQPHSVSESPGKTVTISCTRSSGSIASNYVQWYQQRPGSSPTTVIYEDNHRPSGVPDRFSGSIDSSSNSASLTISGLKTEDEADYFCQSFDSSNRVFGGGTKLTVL
-- reply 156000

-- ask Would you kindly repeat that for ABL-CD3-7 (antibody, V domains shown, Chimeric hybridoma mAb: human V, CH1, upper hinge; mouse middle hinge, CH2, CH3) VH: EVQLVESGGGLVKPGGSLRLSCAASGFTFSRYSMNWVRQAPGKGLKWVSSISSSGSYKYYADSVKGRFTISRDNAKNSLYLQMNSLRAEDTAVYYCAREPPTLGMDYWGQGTLVTVSS VL: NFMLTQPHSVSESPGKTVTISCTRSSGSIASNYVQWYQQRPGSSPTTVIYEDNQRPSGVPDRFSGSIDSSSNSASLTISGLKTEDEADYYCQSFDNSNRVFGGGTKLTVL ?
-- reply 190000

-- ask Try the binder ABL-CD3-53 (antibody, V domains shown, Chimeric hybridoma mAb: human V, CH1, upper hinge; mouse middle hinge, CH2, CH3) VH: EVQLVESGGGLVKPGGSLRLSCAASGFTFSSYTMNWVRQAPGKGLEWVSSITTSSSYIYYADSVKGRFTISRDNAKNSLYLQMNSLRAEDTAVYYCARVTFDAFDIWGQGTMVTVSS VL: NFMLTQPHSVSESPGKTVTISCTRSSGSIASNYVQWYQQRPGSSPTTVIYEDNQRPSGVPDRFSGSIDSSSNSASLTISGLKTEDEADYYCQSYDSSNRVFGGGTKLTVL
-- reply 136000

-- ask And ABL-CD3-48 (antibody, V domains shown, Chimeric hybridoma mAb: human V, CH1, upper hinge; mouse middle hinge, CH2, CH3) VH: EVQLVESGGGLVKPGGSLRLSCAASGFTFSSYTMNWVRQAPGKGLEWVSSISGSGSYIYYADSVKGRFTISRDNAKNSLYLQMNSLRAEDTAVYYCAREPPTLGMDYWGQGTLVTVSS VL: NFMLTQPHSVSESPGKTVTISCTRSSGSIASNYVQWYQQRPGSSPTTVIYEDNQRPSGVPDRFSGSIDSSSNSASLTISGLKTEDEADYYCQSFDSSNRVFGGGTKLTVL ?
-- reply 99300

-- ask Field entry: ABL-CD3-24 (antibody, V domains shown, Chimeric hybridoma mAb: human V, CH1, upper hinge; mouse middle hinge, CH2, CH3) VH: EVQLVESGGGLVKPGGSLRLSCVASGFTFSSYTMNWVRQAPGKGLEWVSSISRSGSYKYNADSVKGRFTISRDNAKNSLYLQMNSLRVEDTAVYYCAREPPTLGMDYWGQGTLVTVSS VL: NFMLTQPHSVSESPGKTVTISCTRSSGSIASNYVQWYQQRPGSSPTTVIYEDNQRPSGVPDRFSGSIDSSSNSASLTISGLKTEDEADYYCQSFYSSNRVFGGGTELTVL
-- reply 175000
